Biological target: CYP1A2 (Homo sapiens)
Sequence (P05177 whole entry): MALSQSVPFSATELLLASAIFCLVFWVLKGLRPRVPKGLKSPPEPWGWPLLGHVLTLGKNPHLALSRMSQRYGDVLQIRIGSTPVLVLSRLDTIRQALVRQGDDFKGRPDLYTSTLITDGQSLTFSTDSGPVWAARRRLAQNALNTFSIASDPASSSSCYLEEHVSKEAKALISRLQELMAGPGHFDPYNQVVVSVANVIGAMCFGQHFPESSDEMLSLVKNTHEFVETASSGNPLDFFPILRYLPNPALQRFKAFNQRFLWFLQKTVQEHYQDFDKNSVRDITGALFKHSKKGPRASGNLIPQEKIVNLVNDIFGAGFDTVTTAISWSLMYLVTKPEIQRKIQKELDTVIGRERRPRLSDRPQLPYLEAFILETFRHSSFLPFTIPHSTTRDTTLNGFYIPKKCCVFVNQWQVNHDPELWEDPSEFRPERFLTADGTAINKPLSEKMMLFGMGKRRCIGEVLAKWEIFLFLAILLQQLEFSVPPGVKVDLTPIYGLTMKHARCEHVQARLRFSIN
Assay: CYP1A2 inhibition in upcyte hepatocytes over 24 h
Format: in vitro ADME
Settings: probe phenacetin (5 μmol/L), percentage inhibition, CYP1A2, APAP, 1 mmol/L ABT, Donor 151-03, 24 h, Lab 2

Smiles structure | Assayed target | inhibition at 24 h, 1 mmol/L / %
Nn1nnc2ccccc21 | CYP1A2 (Homo sapiens) | 100

---

CYP3A4 Ind50: recorded values
System: CYP3A4
Settings: upcyte Donor 653-03; column headed Ind50 in Table 5
Attribute measured: CYP3A4 Ind50

Compound | Assayed target | Attribute measured | Recorded result
COc1ccc2[nH]c([S+]([O-])Cc3ncc(C)c(OC)c3C)nc2c1 (centres unmarked) [Omeprazole, omeprazole] | CYP3A4 | CYP3A4 Ind50 | 5
CCC1(c2ccccc2)C(=O)NC(=O)NC1=O [Phenobarbital, phenobarbital] | CYP3A4 | CYP3A4 Ind50 | 120
Cc1c(C)c2c(c(C)c1O)CCC(C)(COc1ccc(CC3SC(=O)NC3=O)cc1)O2 (centres unmarked) [Troglitazone, troglitazone] | CYP3A4 | CYP3A4 Ind50 | 14
CCc1ccc(CCOc2ccc(CC3SC(=O)NC3=O)cc2)nc1 (centres unmarked) [Pioglitazone, pioglitazone] | CYP3A4 | CYP3A4 Ind50 | 91
O=C1NC(=O)C(c2ccccc2)(c2ccccc2)N1 [Phenytoin, phenytoin] | CYP3A4 | CYP3A4 Ind50 | 59
NC(=O)N1c2ccccc2C=Cc2ccccc21 [Carbamazepine, carbamazepine] | CYP3A4 | CYP3A4 Ind50 | 52

---

System: CYP2B6
Settings: upcyte Donor 151-03; relative to positive control phenobarbital, equation 2
Attribute measured: CYP2B6 % PB (%)

Molecule | Assayed target | Attribute measured | Unit info | Recorded result
Cc1c(C)c2c(c(C)c1O)CCC(C)(COc1ccc(CC3SC(=O)NC3=O)cc1)O2 (stereo not drawn) | CYP2B6 | CYP2B6 % PB | % | 57
NC(=O)N1c2ccccc2C=Cc2ccccc21 [Carbamazepine, carbamazepine] | CYP2B6 | CYP2B6 % PB | % | 68
CCc1ccc(CCOc2ccc(CC3SC(=O)NC3=O)cc2)nc1 (stereo not drawn) | CYP2B6 | CYP2B6 % PB | % | 49

---

Tested on: CYP3A4
Conditions: upcyte Donor 151-03; mean from two experiments
Tag: rule met if measured CYP3A4 Indmax is not below 4 fold, rule not met if it is.

Compound | Category
Cc1c(C)c2c(c(C)c1O)CCC(C)(COc1ccc(CC3SC(=O)NC3=O)cc1)O2 (centres unmarked) | rule not met
NC(=O)N1c2ccccc2C=Cc2ccccc21 [Carbamazepine, carbamazepine] | rule not met
COc1ccc2[nH]c([S+]([O-])Cc3ncc(C)c(OC)c3C)nc2c1 (centres unmarked) | rule not met
CCC1(c2ccccc2)C(=O)NC(=O)NC1=O | rule met
O=C1NC(=O)C(c2ccccc2)(c2ccccc2)N1 | rule met

---

Molecular target: CYP2B6 (Homo sapiens, UniProt P20813)
Sequence (P20813 whole entry): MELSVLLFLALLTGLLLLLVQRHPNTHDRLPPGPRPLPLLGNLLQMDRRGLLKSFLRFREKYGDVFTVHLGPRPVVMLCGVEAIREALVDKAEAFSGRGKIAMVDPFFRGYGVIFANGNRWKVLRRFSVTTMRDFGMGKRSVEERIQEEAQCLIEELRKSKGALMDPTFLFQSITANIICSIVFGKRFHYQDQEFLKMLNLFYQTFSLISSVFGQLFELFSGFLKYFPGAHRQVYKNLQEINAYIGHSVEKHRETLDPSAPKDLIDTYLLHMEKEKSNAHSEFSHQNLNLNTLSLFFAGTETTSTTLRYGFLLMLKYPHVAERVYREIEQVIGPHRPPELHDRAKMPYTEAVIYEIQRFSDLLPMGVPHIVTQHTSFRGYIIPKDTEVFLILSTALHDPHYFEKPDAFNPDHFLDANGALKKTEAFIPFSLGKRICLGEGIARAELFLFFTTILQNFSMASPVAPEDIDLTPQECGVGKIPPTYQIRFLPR
Assay: in vitro
Conditions: hepatocytes, percentage inhibition, CYP2B6, OH-Bup, 1 mmol/L ABT, Donor 422A-03, 0–6 h, Lab 2

Compound | inhibition at 1 mmol/L
Nn1nnc2ccccc21 [ABT, 1-aminobenzotriazole] | 90%

---

# Lookup of reported CYP2B6 Indmax keyed by entry
Tested on: CYP2B6
Conditions: upcyte Donor 10-03; mean from two experiments
Attribute measured: CYP2B6 Indmax (fold)

Compound | Attribute measured | Recorded result
CO[C@H]1/C=C/O[C@@]2(C)Oc3c(C)c(O)c4c(O)c(c(/C=N/N5CCN(C)CC5)c(O)c4c3C2=O)NC(=O)/C(C)=C\C=C\[C@H](C)[C@H](O)[C@@H](C)[C@@H](O)[C@@H](C)[C@H](OC(C)=O)[C@@H]1C [Rifampicin, rifampicin] | CYP2B6 Indmax | 2.0
Cc1c(C)c2c(c(C)c1O)CCC(C)(COc1ccc(CC3SC(=O)NC3=O)cc1)O2 (stereo not drawn) [Troglitazone, troglitazone] | CYP2B6 Indmax | 5.4
NC(=O)N1c2ccccc2C=Cc2ccccc21 [Carbamazepine, carbamazepine] | CYP2B6 Indmax | 2.0
O=C1NC(=O)C(c2ccccc2)(c2ccccc2)N1 [Phenytoin, phenytoin] | CYP2B6 Indmax | 3.6

Every entry's value here was drawn from paper PMC4618636.
